Item-by-item account of pIC50
target: Human mTOR (Homo sapiens); construct: FLAG; test: mTOR kinase assay (DELFIA format, purified enzyme); type: biochemical; details: His6-S6K substrate, read-out: TOR Kinase IC50
When answering, recall that pIC50 equals minus log10 of the concentration in mol/L, and write that number alone.

Known results for compounds:
{"COMPOUND": "CNC(=O)Nc1ccc(-c2nc(C3=CCOCC3)c3cnn(C4CCN(C(=O)c5cccnc5)CC4)c3n2)cc1", "READOUT NUMBER": 8.08}
{"COMPOUND": "Nc1ncccc1CN1CCC(n2cnc3c(C4=CCOCC4)nc(-c4cncc(O)c4)nc32)CC1", "READOUT NUMBER": 4.89}
{"COMPOUND": "COc1ccc(CN2CCC(n3cnc4c(C5=CCOCC5)nc(-c5cncc(O)c5)nc43)CC2)cn1", "READOUT NUMBER": 5.77}

(Q) Which value of pIC50 has been reported for CNC(=O)Nc1ccc(-c2nc(C3=CCOCC3)c3cnn(C4CCN(Cc5cccnc5)CC4)c3n2)cc1 in the records?
(A) 7.77

(Q) Same question, Oc1cncc(-c2nc(C3=CCOCC3)c3ncn(C4CCN(Cc5ccccn5)CC4)c3n2)c1 this time
(A) 5.80

(Q) Same question, O=c1[nH]c2nc(-c3cccc(O)c3)nc(C3=CCOCC3)c2[nH]1 [Compound 67] this time
(A) 6.55

(Q) Same question, OCc1cccc(-c2nc(C3=CCOCC3)c3ncn(C4CCN(Cc5ccc(F)nc5)CC4)c3n2)c1 this time
(A) 5.72

(Q) Same question, Oc1cncc(-c2nc(C3=CCOCC3)c3nn[nH]c3n2)c1 this time
(A) 6.44

(Q) Same question, CN1CCC(n2cnc3c(C4=CCOCC4)nc(-c4cccc(O)c4)nc32)CC1 this time
(A) 5.64

(Q) Same question, O=c1[nH]c2nc(-c3cccc(O)c3)nc(C3=CCOCC3)c2[nH]1 [Compound 38] this time
(A) 6.72

(Q) Same question, Oc1cncc(-c2nc(C3=CCOCC3)c3ncn(C4CCN(Cc5cccnc5)CC4)c3n2)c1 this time
(A) 5.62

====

target: UniProt:P48736; assay: Fluorescence polarization assay for PI3K; type: biochemical
Sequence (P48736 whole entry): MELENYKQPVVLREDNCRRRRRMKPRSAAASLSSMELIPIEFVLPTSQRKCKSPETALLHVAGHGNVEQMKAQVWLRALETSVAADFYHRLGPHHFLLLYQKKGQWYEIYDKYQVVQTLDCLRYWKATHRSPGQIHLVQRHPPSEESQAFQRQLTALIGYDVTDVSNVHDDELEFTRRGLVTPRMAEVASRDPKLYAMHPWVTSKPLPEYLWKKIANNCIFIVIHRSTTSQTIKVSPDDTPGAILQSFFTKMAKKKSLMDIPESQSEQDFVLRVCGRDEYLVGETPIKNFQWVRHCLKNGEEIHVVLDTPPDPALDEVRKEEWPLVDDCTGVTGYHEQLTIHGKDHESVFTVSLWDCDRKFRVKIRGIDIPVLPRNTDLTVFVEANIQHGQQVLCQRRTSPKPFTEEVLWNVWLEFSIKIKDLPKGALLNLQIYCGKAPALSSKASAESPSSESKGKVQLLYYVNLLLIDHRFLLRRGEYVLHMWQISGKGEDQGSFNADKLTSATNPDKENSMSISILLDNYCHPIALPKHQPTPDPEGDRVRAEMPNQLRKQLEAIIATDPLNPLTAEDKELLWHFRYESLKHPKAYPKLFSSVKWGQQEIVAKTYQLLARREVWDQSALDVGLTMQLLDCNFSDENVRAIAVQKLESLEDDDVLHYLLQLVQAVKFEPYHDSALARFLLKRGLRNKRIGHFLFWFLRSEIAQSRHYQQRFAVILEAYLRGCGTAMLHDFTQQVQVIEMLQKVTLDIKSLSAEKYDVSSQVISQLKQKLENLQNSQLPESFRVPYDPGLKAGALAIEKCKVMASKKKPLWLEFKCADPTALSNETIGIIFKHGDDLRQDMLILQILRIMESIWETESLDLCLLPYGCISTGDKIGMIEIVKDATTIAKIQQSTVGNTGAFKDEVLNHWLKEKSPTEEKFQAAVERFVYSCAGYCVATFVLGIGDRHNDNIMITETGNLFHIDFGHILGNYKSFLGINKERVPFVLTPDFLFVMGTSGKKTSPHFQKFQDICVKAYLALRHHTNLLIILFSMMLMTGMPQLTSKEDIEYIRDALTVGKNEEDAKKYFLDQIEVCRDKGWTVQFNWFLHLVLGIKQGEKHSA
REPORTED ENDPOINT: IC50 (µM)
Write the answer as a number in µM, unit excluded.

Known results for molecules:
{"MOLECULE": "OCc1cccc(-c2nc(C3=CCOCC3)c3nn[nH]c3n2)c1 [Compound 49]", "IC50 / µM": 1.04}
{"MOLECULE": "CNC(=O)Nc1ccc(-c2nc(C3=CCOCC3)c3ncn(C4CCN(Cc5ccc[nH]5)CC4)c3n2)cc1 [Compound 41]", "IC50 / µM": 3.11}
{"MOLECULE": "O=C(Nc1ccc(-c2nc(C3=CCOCC3)c3ncn(C4CCNCC4)c3n2)cc1)NC1CCNCC1 [Compound 26]", "IC50 / µM": 7}

# ---- query molecule ----
(Q) Which value of IC50 has been reported for CNC(=O)Nc1ccc(-c2nc(C3=CCOCC3)c3cnn(CC(F)(F)F)c3n2)cc1 [Compound 6] in the records?
(A) 3.03

====

Measured IC50 on UniProt P48736 follows.
Write the answer as a number in µM, unit excluded.

{"SMILES INPUT": "O=c1[nH]c2nc(-c3cccc(O)c3)nc(C3=CCOCC3)c2[nH]1", "IC50 [µM]": 0.414}
{"SMILES INPUT": "Oc1cccc(-c2nc(C3=CCOCC3)c3ncn(C4CCN(Cc5ccco5)CC4)c3n2)c1", "IC50 [µM]": 0.859}
{"SMILES INPUT": "O=C(Nc1ccc(-c2nc(C3=CCOCC3)c3ncn(C4CCN(Cc5ccc[nH]5)CC4)c3n2)cc1)NC1CCN(C(=O)OCc2ccccc2)CC1", "IC50 [µM]": 1.08}
{"SMILES INPUT": "Oc1cncc(-c2nc(C3=CCOCC3)c3ncn(C4CCN(Cc5ccccn5)CC4)c3n2)c1", "IC50 [µM]": 2.99}
{"SMILES INPUT": "Cc1ccc(CN2CCC(n3cnc4c(C5=CCOCC5)nc(-c5cccc(O)c5)nc43)CC2)cc1", "IC50 [µM]": 12}

(Q) Which value of IC50 has been reported for COc1ccc(CN2CCC(n3cnc4c(C5=CCOCC5)nc(-c5cncc(O)c5)nc43)CC2)cn1 in the records?
(A) 2.53
